- assayed target: T1, CD25 (R&D systems cat. #223-2A/CF) (UniProt P01589 22-213, limits assumed)
- T1 construct: Bought soluble protein
- T1 sequence (looked up): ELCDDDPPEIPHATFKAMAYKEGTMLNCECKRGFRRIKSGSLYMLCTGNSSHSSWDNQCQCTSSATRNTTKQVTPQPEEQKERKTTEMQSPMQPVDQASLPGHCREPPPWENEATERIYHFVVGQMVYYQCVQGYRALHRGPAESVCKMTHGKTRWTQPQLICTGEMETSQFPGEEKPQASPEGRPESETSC
- experiment notes: Biacore (SPR); antibody captured on Protein A, CD25 injected
endpoint label: Fold change in Kd vs. H1L1

* anti-CD25 H1L1.13 (antibody, V domains shown, Single variant in the anti-CD25 H1L1 background; also called VL V58I single variant) VH: QVQLVQSGAEVKKPGASVKVSCKASGYTFTSYRMHWVRQAPGQGLEWMGYINPSTGYTEYNQKFQGRVTITADKSISTAYMELSRLRSDDTAVYYCARGGGVFDYWGQGTLVTVSS VL: QIVLTQSPATLSLSPGERATLSCRASSSISYMHWFQQKPGQSPQLLIYTTSNLASGIPARFSGSGSGTDYTLTISSLQPEDFAVYYCHQRSTYPLTFGSGTKLEIK | -1.1 fold
